Reference for the values: ChEMBL document CHEMBL1130534

tested on: Rattus norvegicus; assay: Compound administered intraperitoneally was tested for antiinflammatory activity in carrageenan-induced rat paw edema assay after 3.5 hours; format: functional; set-up: concentration or dose not given beside the values
Tick condition met if Inhibition is 30% or greater. Tick condition not met if Inhibition is less than 30%.

Compound: CCOC(=O)Cc1sc(-c2nsc3ccccc23)nc1-c1ccccc1
Group: condition not met
--
Compound: CC(C)Cc1ccc(C(C)C(=O)O)cc1 (stereo not drawn) [IBUPROFEN]
Group: condition met
--
Compound: O=C(O)Cc1sc(-c2nsc3ccccc23)nc1-c1ccccc1
Group: condition not met
--
Compound: CCOC(=O)Cc1sc(-c2nsc3ccccc23)nc1-c1ccc(Cl)cc1
Group: condition not met
--
Compound: O=C(O)Cc1sc(-c2nsc3ccccc23)nc1-c1ccc(Cl)cc1
Group: condition met
--
Compound: O=C(O)Cc1csc(-c2nsc3ccccc23)n1
Group: condition met
--
Compound: COc1ccc(-c2nc(-c3nsc4ccccc34)sc2CC(=O)O)cc1
Group: condition not met
